Data origin: ChEMBL document CHEMBL2429768

tested on: Escherichia coli; assay: Antibacterial activity against Escherichia coli ATCC 8739 at 100 ug/ml after 24 hrs by agar well diffusion method; assay type: functional; conditions: ATCC 8739, 24 h, read-out: DIZ
Catalogue of compounds with associated zone of inhibition at 100 µg/mL
Provide a numeric answer, followed by its unit.

Example entries begin here.
CC1(C)OC(=O)C(=Cc2c[nH]c3ccc(Br)cc23)C(=O)O1 | 15.5 mm
CCn1cc(C=C2C(=O)OC(C)(C)OC2=O)c2cc([N+](=O)[O-])ccc21 | 13 mm
COc1ccc2[nH]cc(C=C3C(=O)OC(C)(C)OC3=O)c2c1 | 15 mm

Inquiry: Record request: zone of inhibition at 100 µg/mL value, item Cn1cc(C=C2C(=O)OC(C)(C)OC2=O)c2ccccc21
Reply text: 13 mm
